Target: human HSL (Homo sapiens, UniProt Q05469)
Construct: generate a full length human HSL ORF with a 3′-His6 tag
Sequence (Q05469 whole entry): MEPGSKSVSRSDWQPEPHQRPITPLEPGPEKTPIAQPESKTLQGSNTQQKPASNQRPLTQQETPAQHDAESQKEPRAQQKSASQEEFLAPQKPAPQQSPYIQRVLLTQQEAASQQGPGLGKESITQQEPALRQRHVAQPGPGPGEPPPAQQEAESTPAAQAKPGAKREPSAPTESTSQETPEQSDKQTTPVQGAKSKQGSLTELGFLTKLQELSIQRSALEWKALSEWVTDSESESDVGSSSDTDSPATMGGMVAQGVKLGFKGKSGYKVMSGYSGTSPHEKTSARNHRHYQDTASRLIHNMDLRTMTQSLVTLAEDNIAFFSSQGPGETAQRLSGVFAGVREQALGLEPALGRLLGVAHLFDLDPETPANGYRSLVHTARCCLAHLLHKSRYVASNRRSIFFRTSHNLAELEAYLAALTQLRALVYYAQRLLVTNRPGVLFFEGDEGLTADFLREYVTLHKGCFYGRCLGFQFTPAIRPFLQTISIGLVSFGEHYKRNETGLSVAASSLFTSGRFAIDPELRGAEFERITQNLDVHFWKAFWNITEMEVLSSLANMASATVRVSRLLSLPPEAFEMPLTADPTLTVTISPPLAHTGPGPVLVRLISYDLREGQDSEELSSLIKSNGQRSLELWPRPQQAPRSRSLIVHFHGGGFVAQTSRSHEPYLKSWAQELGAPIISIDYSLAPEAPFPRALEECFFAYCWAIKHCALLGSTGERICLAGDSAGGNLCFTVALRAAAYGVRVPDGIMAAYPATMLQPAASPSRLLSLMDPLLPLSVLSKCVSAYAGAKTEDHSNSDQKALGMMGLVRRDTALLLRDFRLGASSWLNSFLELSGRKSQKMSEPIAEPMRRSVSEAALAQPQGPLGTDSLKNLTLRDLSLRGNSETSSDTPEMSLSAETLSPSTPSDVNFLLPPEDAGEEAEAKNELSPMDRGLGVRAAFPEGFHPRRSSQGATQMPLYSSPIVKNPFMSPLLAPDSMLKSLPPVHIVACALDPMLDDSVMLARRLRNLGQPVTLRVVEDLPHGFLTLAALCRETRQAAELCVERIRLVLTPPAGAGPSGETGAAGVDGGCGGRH
Test: Human Hormone-Sensitive Lipase (HSL) enzyme inhibition assay (colorimetric, DMPT substrate)
Conditions: human full length HSL-His6, 2,3-dimercapto-1-propanol tributyrate substrate, 37° C. 20 minutes, absorbance at 405 nm; read-out: HSL hum IC50
Description: Production of Human Full Length Hormone Sensitive Lipase-His^6: 1) Cloning: cDNA was prepared from commercial human brain polyA+ RNA and used as a template in overlapping PCR to generate a full length human HSL ORF with a 3′-His6 tag. […] The protein concentration was calculated from absorbance at 280 nm, using 280=0.67 cm-1 mg-1. […] HSL enzyme activity was measured by a colorimetric assay using 2,3-dimercapto-1-propanol tributyrate (Aldrich, St. Louis, Mo.) as a substrate. […]
pIC50: −log10 of the molar value.
Tick 1 (yes) if pIC50 is 7 or greater. Tick 0 (no) if pIC50 is less than 7.

[[record]]
compound = "CC(C)c1ccc(N2CC[C@]3(CC[C@@](O)(C(C)C)CC3)C2=O)cc1"
category = "1 (yes)"

[[record]]
compound = "C[C@@H](Oc1ccc(N2CC[C@]3(CC[C@@](O)(C(F)(F)F)CC3)C2=O)cc1)C(F)(F)F [Example 177b]"
category = "1 (yes)"

[[record]]
compound = "CC(Oc1ccc(N2CC[C@]3(CC[C@@](O)(C(F)(F)F)CC3)C2=O)cc1)C(F)(F)F (stereo partly shown)"
category = "1 (yes)"

[[record]]
compound = "C[C@H](Oc1ccc(N2CC[C@]3(CC[C@@](O)(C(F)(F)F)CC3)C2=O)cn1)C(F)(F)F"
category = "1 (yes)"

[[record]]
compound = "CCOC[C@]1(O)CC[C@]2(CCN(c3ccc(O[C@@H](C)C(F)(F)F)nc3)C2=O)CC1"
category = "1 (yes)"

[[record]]
compound = "CC(C)Oc1ccc(N2CC[C@]3(CC[C@@](O)(C4CC4)CC3)C2=O)cc1"
category = "1 (yes)"

[[record]]
compound = "CCCOC[C@]1(O)CC[C@@]2(CCN(c3ccc(OCC(F)(F)F)cc3)C2=O)CC1"
category = "0 (no)"

[[record]]
compound = "O=C1N(c2ccc(OC(F)(F)F)cc2)CC[C@]12CC[C@@H](OCc1ccccc1)CC2"
category = "0 (no)"

[[record]]
compound = "Cn1nnc(Br)c1[C@]1(O)CC[C@]2(CCN(c3ccc(C(F)(F)F)cc3)C2=O)CC1"
category = "1 (yes)"

[[record]]
compound = "Cn1nncc1[C@]1(O)CC[C@]2(CCN(c3ccc(C(F)(F)F)cc3)C2=O)CC1"
category = "0 (no)"

[[record]]
compound = "CC[C@]1(O)CC[C@]2(CCN(c3ccc(OC(F)(F)F)cc3)C2=O)CC1"
category = "1 (yes)"

[[record]]
compound = "COCCc1ccc(N2CC[C@]3(CC[C@](O)(CC(C)C)CC3)C2=O)cc1"
category = "0 (no)"

[[record]]
compound = "C[C@]1(O)CC[C@@]2(CCN(c3ccc(C4CC4)cc3)C2=O)CC1"
category = "0 (no)"

[[record]]
compound = "CC(C)CCOC[C@]1(O)CC[C@]2(CCN(c3ccc(OCC(F)(F)F)cc3)C2=O)CC1"
category = "1 (yes)"

